Run conditions: 303.15 K; 101.3 kPa; Liquid; Capillary tube (Ostwald / Ubbelohde) method
Note to self: viscosity under 0.5 mPa·s means 1 (yes), ties and anything higher get 0 (no).

Answer whether the molecule C1CCC2CCCCC2C1 (centres undefined) [decahydronaphthalene] has viscosity strictly less than 0.5 mPa·s
0 (no)

Thanks! And `C1CCCCC1` ?
0 (no)

Thanks! And `CC(C)CC(C)(C)C` ?
1 (yes)

Thanks! And `CCCCCC` ?
1 (yes)

Thanks! And `c1ccccc1` ?
0 (no)

Thanks! And c1ccc2c(c1)CCCC2 [1,2,3,4-tetrahydronaphthalene] ?
0 (no)

Thanks! And `CCCCCCCC` ?
1 (yes)

Thanks! And `CCCCCCC` ?
1 (yes)

Thanks! And `CC(C)OC(C)C` ?
1 (yes)

---

So I've got a bunch of compounds here, and I need their mass density values.
Run conditions: 303.15 K; 101.33 kPa; Liquid; Pycnometric method
± gives the expanded uncertainty stated by the source.
Please make sure the unit comes right after the number.

Which mass density reading was recorded for the compound CCCCCCCC [octane] ?
692.56 ± 0.7 kg/m3

Thanks! And c1ccc2c(c1)CCCC2 [1,2,3,4-tetrahydronaphthalene] ?
955.44 ± 0.9 kg/m3

Thanks! And CCCCCCC [heptane] ?
674.38 ± 0.71 kg/m3

Thanks! And c1ccccc1 [benzene] ?
868.39 ± 0.9 kg/m3

Thanks! And CC(C)OC(C)C [diisopropyl ether] ?
711.97 ± 0.67 kg/m3

Thanks! And C1CCCCC1 [cyclohexane] ?
769.14 ± 0.99 kg/m3

Thanks! And C1CCC2CCCCC2C1 (stereo not drawn) [decahydronaphthalene] ?
868.5 ± 0.74 kg/m3

Thanks! And CCCCCC [hexane] ?
650.64 ± 0.7 kg/m3

---

Run conditions: Liquid; Distillation
Note to self: Normal boiling temperature under 80 °C means Y, ties and anything higher get N.

Answer whether the compound c1ccc2c(c1)CCCC2 [1,2,3,4-tetrahydronaphthalene] has Normal boiling temperature strictly less than 80 °C
N

Thanks! And `CCCCCCCC` ?
N

Thanks! And C1CCC2CCCCC2C1 (stereo not drawn) [decahydronaphthalene] ?
N

Thanks! And `CCCCCCC` ?
N

Thanks! And `CC(C)OC(C)C` ?
Y

Thanks! And `CCCCCC` ?
Y

---

Run conditions: 298.15 K; 101.33 kPa; Liquid; Pycnometric method
So I've got a bunch of compounds here, and I need their mass density values.
The figure you give is taken to be in kg/m3; do not add the unit.

Which mass density reading was recorded for the compound C1CCC2CCCCC2C1 (stereo not drawn) [decahydronaphthalene] ?
879.14

Thanks! And `CCCCCCC` ?
678.93

Thanks! And c1ccc2c(c1)CCCC2 [1,2,3,4-tetrahydronaphthalene] ?
965.89

Thanks! And `c1ccccc1` ?
873.64

Thanks! And `CC(C)OC(C)C` ?
718.14

Thanks! And `C1CCCCC1` ?
773.98

Thanks! And `CCCCCC` ?
654.9

Thanks! And `CCCCCCCC` ?
697.36

---

So I've got a bunch of compounds here, and I need their speed of sound values.
Run conditions: 303.15 K; 101.3 kPa; Liquid; Linear variable-path acoustic interferometer
The figure you give is taken to be in m/s; do not add the unit.

Which speed of sound reading was recorded for the compound C1CCCCC1 [cyclohexane] ?
1231

Thanks! And CCCCCC [hexane] ?
1052.9

Thanks! And CC(C)OC(C)C [diisopropyl ether] ?
974.9

Thanks! And CCCCCCCC [octane] ?
1152

Thanks! And c1ccc2c(c1)CCCC2 [1,2,3,4-tetrahydronaphthalene] ?
1477

Thanks! And c1ccccc1 [benzene] ?
1275.5

Thanks! And C1CCC2CCCCC2C1 (centres undefined) [decahydronaphthalene] ?
1404

Thanks! And CC(C)CC(C)(C)C [2,2,4-trimethylpentane] ?
1060.8

Thanks! And CCCCCCC [heptane] ?
1110.5
